All figures here come from patent US20240309056A1.

Biological target: T1, ubiquitin mutein 77404
T1 construct: also called Affilin-77404
Assay: SPR (Biacore 3000), ligand immobilised, ubiquitin mutein in solution; Table 1 run; ligand on the chip, Affilin-77404 in solution
pKd: −log10 of the molar value.
assay.metric: pKd

Input affinity ligand 187029 (designed binder, Artificial mosaic protein of Protein A-like structure) NAAMDDFAQYSAWAEIEALPNLTEMQKDQFIWSLMFDPSVSKEVLGEAQKLNDSQAPK . Output pKd: > 9.30
